test system: MDA-MB-231; experiment: Antiproliferative activity against estrogen-independent breast cancer MDA-MB-231 cell line by MTS assay; assay type: functional, cell-based; conditions: Homo sapiens
MEASURED PROPERTY: IC50 (µM)

QUERY SMILES: O=C1Nc2ccccc2/C1=C\c1cccc(O)c1
ASSAY RESULT: 16.9
--
QUERY SMILES: COc1ccc2c(c1)NC(=O)/C2=C/c1cc(OC)c(OC)c(OC)c1
ASSAY RESULT: 0.0009
--
QUERY SMILES: COc1cc([C@@H]2c3cc4c(cc3[C@H](O)[C@H]3COC(=O)[C@H]23)OCO4)cc(OC)c1OC
ASSAY RESULT: 0.008
--
QUERY SMILES: COc1ccc2c(c1)NC(=O)/C2=C/c1cccc(O)c1
ASSAY RESULT: 1.4
--
QUERY SMILES: O=C1Nc2cc(O)ccc2/C1=C\c1cccc(O)c1
ASSAY RESULT: 4.3
--
QUERY SMILES: O=C1Nc2cc(O)ccc2/C1=C\c1ccc(O)cc1
ASSAY RESULT: 9.4
--
QUERY SMILES: O=C1Nc2ccccc2/C1=C\c1ccc(O)cc1
ASSAY RESULT: 17.5
--
QUERY SMILES: COc1ccc2c(c1)NC(=O)/C2=C/c1ccc(O)cc1
ASSAY RESULT: 2.6

====

Measured pIC50, listed per entry for reference.
test system: PC-3; assay: Antiproliferative activity against androgen-independent prostate cancer PC3 cell line by MTS assay; format: functional, cell-based; conditions: Homo sapiens
pIC50: −log10 of the molar value.
MEASURED PROPERTY: pIC50

QUERY SMILES: O=C1Nc2cc(O)ccc2/C1=C\c1ccc(O)cc1
COMPARISON OPERATOR: =
ASSAY RESULT: 4.35

QUERY SMILES: O=C1Nc2cc(O)ccc2/C1=C\c1cccc(O)c1
COMPARISON OPERATOR: =
ASSAY RESULT: 4.71

QUERY SMILES: COc1ccc2c(c1)NC(=O)/C2=C/c1ccc(O)cc1
COMPARISON OPERATOR: =
ASSAY RESULT: 6.19

QUERY SMILES: COc1ccc2c(c1)NC(=O)/C2=C/c1cc(OC)c(OC)c(OC)c1
COMPARISON OPERATOR: =
ASSAY RESULT: 8.09

QUERY SMILES: O=C1Nc2ccccc2/C1=C\c1cccc(O)c1
COMPARISON OPERATOR: <
ASSAY RESULT: 4.30

QUERY SMILES: O=C1Nc2ccccc2/C1=C\c1ccc(O)cc1
COMPARISON OPERATOR: <
ASSAY RESULT: 4.30

QUERY SMILES: COc1cc([C@@H]2c3cc4c(cc3[C@H](O)[C@H]3COC(=O)[C@H]23)OCO4)cc(OC)c1OC
COMPARISON OPERATOR: =
ASSAY RESULT: 7.89

QUERY SMILES: COc1ccc2c(c1)NC(=O)/C2=C/c1cccc(O)c1
COMPARISON OPERATOR: =
ASSAY RESULT: 6.27

====

Items are presented alongside their recorded IC50.
molecular target: Tubulin (Sus scrofa, UniProt P02554+P02550); experiment: Inhibition of porcine brain tubulin polymerization by GTP-induced assembly
MEASURED PROPERTY: IC50 (µM)

QUERY SMILES: COc1ccc2c(c1)NC(=O)/C2=C/c1cccc(O)c1
MEASURED PROPERTY: IC50
UNITS SYMBOL: µM
COMPARISON OPERATOR: =
ASSAY RESULT: 9.1
//
QUERY SMILES: O=C1Nc2cc(O)ccc2/C1=C\c1ccc(O)cc1
MEASURED PROPERTY: IC50
UNITS SYMBOL: µM
COMPARISON OPERATOR: >
ASSAY RESULT: 40
//
QUERY SMILES: COc1ccc2c(c1)NC(=O)/C2=C/c1cc(OC)c(OC)c(OC)c1
MEASURED PROPERTY: IC50
UNITS SYMBOL: µM
COMPARISON OPERATOR: =
ASSAY RESULT: 4.5
//
QUERY SMILES: O=C1Nc2ccccc2/C1=C\c1cccc(O)c1
MEASURED PROPERTY: IC50
UNITS SYMBOL: µM
COMPARISON OPERATOR: >
ASSAY RESULT: 40
//
QUERY SMILES: O=C1Nc2ccccc2/C1=C\c1ccc(O)cc1
MEASURED PROPERTY: IC50
UNITS SYMBOL: µM
COMPARISON OPERATOR: >
ASSAY RESULT: 40
//
QUERY SMILES: O=C1Nc2cc(O)ccc2/C1=C\c1cccc(O)c1
MEASURED PROPERTY: IC50
UNITS SYMBOL: µM
COMPARISON OPERATOR: >
ASSAY RESULT: 40
//
QUERY SMILES: COc1ccc2c(c1)NC(=O)/C2=C/c1ccc(O)cc1
MEASURED PROPERTY: IC50
UNITS SYMBOL: µM
COMPARISON OPERATOR: =
ASSAY RESULT: 18
